Experiment: Acute toxicity in mice
Conditions: mouse, in vivo, po

{"QUERY_SMILES": "O=C1CCCN1Cc1ccc(F)cc1", "LD50": "1000 to 2000 mg/kg"}
{"QUERY_SMILES": "COc1cccc(CN2CCCC2=O)c1", "LD50": "1250 to 2500 mg/kg"}
{"QUERY_SMILES": "COc1ccc(CN2CCCC2=O)cc1", "LD50": "2000 to 4000 mg/kg"}
{"QUERY_SMILES": "COc1ccccc1C(=O)N1CCCC1=O", "LD50": "5000 mg/kg"}

These measurements were taken from patent US4349562A.
